Molecular target: T1, His-tagged human CD38 (ACRO Biosystems cat #CD8-H5224) (human, UniProt P28907 43-300)
T1 construct: bought recombinant protein with His tag
Experiment: ELISA, coated His-CD38
ASSAY ENDPOINT: ELISA 1 ug/ml
The reply should be a number, written without any unit.

Worked cases, answers included:
{"BINDER": "40566p1.C9 (scFv, V domains shown, tested as scFv-Fc supernatant) VH: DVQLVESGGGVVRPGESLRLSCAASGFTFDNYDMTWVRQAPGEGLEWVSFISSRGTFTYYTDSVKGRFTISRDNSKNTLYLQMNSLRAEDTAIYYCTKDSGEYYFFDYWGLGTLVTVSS VL: ETVMTQSPATLSVSPGERATFSCRASQSVNSKLAWYQQKPGQAPRLLIYDASRRATGIPDRFSGSGSGTEFTLTISSLQSEDFAVYFCQQYYDWPPLTFGGGTKVEIK", "NUMERIC READOUT": 1.83}
{"BINDER": "40769p1.1.H1 (scFv, V domains shown, tested as scFv-Fc supernatant) VH: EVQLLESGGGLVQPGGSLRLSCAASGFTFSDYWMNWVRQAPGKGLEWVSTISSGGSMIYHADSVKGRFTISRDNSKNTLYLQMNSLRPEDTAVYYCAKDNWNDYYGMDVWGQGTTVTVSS VL: QSVLTQPPSASGTPGQRVNISCSGSSSNIRYNYVYWYQQVPGTAPKLLIYKDDQRPSGVPDRFSGSKSGTSASLAISELQSEDEADYYCATWDGSLNARVFGGGTKLTVL", "NUMERIC READOUT": 1.86}

Proceed to the following item.
Q: Recorded ELISA 1 ug/ml of 40596p1.H7 (scFv, V domains shown, tested as scFv-Fc supernatant) VH: EVQLLESGGGLVQPGGSLRLSCAASGFDFSTYAMTWVRQAPGKGLEWVAGNGWSGSFTYYADSVKGRFTVSRDNSKNTLYLQMNSLRAEDTAVYYCTRNPGFGEMDVWGQGTTVTVSS VL: EIVLTQSPGTLRLSPGERATLSCRASQTVGTTLAWYQQKPGQAPRLLIHGASTRATDIPDRFSGSGSGTEFTLTISSLQSEDFADYYCQQYKSWPPLTFGGGTKVEIK , please.
A: 1.94
